# TARGET_UNDER_TEST: hPPARδ (Homo sapiens, UniProt Q03181)
# Construct: corresponding to the DEF domains (structural elements of the promoter of the PPARs: D=hinge, EF=ligand fixation domain and AF2 fixation site)
# Sequence (Q03181 211-439 limits assumed): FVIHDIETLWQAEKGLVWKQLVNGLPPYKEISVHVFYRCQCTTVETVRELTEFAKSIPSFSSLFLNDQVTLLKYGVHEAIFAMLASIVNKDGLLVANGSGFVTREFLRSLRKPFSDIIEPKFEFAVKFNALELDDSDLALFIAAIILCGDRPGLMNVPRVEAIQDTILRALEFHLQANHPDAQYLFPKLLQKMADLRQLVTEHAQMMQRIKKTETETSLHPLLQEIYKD
# PROCEDURE_SUMMARY: Gal4-hPPARδ chimera transactivation (luciferase) in COS-7 cells
# EXPERIMENTAL_SETUP: COS-7 cells, Gal4-hPPARδ, luciferase, 24 hours; read-out: PPARδ EC50
VALUE_KIND: EC50 (nM)

Solved entries (count: 2):
1. CCCCCCOc1nc(-c2ccccc2)ccc1COc1ccc(OC(C)(C)C(=O)O)cc1	992
2. COc1nc(-c2ccccc2)ccc1CNc1ccc(C(C)CC(=O)O)cc1 (stereo not drawn)	3360

A. COc1nc(-c2ccc(C(F)(F)F)cc2)ccc1COc1ccc(OC(C)(C)C(=O)O)cc1
B. COc1nc(-c2ccccc2)ccc1CNc1ccc(SC(F)(F)C(=O)O)cc1
C. O=C(O)COc1ccc(OCc2ccc(-c3ccccc3)nc2N2CCCCC2)cc1
Sort by EC50, descending. Write the labels out in the order the request specifies. B, C, A

* * *

# TARGET_UNDER_TEST: hPPARγ (Homo sapiens)
# Construct: corresponding to the DEF domains (structural elements of the promoter of the PPARs: D=hinge, EF=ligand fixation domain and AF2 fixation site)
# Sequence (P37231 238-503 limits assumed): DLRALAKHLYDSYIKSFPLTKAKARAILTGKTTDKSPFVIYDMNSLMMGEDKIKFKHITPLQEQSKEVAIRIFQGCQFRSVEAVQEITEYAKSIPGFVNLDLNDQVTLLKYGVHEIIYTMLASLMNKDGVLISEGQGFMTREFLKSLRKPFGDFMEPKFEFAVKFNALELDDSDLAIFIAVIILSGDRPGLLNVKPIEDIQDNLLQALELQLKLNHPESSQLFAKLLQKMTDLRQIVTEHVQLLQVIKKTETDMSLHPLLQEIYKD
# PROCEDURE_SUMMARY: Gal4-hPPARγ chimera transactivation (luciferase) in COS-7 cells
# EXPERIMENTAL_SETUP: luciferase, 24 hours, read-out: PPARγ EC50
pEC50: −log10 of the molar value.
VALUE_KIND: pEC50

1) COc1ncc(-c2ccc(Cl)cc2)cc1CNc1ccc(CCC(=O)O)cc1	5.39
2) COc1nc(-c2ccccc2)ccc1CN(C)c1ccc(CCC(=O)O)cc1	4.91

A. COc1nc(-c2ccccc2)ccc1CNc1ccc(SC(C)(C)C(=O)O)cc1
B. COc1ncc(-c2ccccc2)cc1CNc1ccc(SCC(=O)O)cc1
Which of the two items, A and B , has the greater recorded pEC50? Please identify the chosen entry by its label. A
(A: 5.61, B: 4.36)

* * *

# TARGET_UNDER_TEST: hPPARα (Homo sapiens, UniProt Q07869)
# Construct: corresponding to the DEF domains (structural elements of the promoter of the PPARs: D=hinge, EF=ligand fixation domain and AF2 fixation site)
# Sequence (Q07869 239-466 limits assumed): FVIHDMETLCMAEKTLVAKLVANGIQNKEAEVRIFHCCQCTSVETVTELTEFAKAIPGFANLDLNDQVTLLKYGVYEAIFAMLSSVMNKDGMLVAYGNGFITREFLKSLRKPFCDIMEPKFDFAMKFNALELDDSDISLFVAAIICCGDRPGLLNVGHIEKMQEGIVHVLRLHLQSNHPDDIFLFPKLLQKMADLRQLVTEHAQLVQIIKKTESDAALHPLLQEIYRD
# PROCEDURE_SUMMARY: Gal4-hPPARα chimera transactivation (luciferase) in COS-7 cells
# EXPERIMENTAL_SETUP: COS-7 cells, Gal4-hPPARα, luciferase, 24 hours; read-out: PPARα EC50
pEC50: −log10 of the molar value.
VALUE_KIND: pEC50

1. CCSc1nc(-c2ccccc2)ccc1CNc1ccc(CCC(=O)O)cc1	4.97
2. CCC(Nc1ccc(CCC(=O)O)cc1)c1ccc(-c2ccccc2)nc1OC (stereo not drawn)	5.85
3. COc1nc(-c2ccccc2)ccc1CNc1ccc(OCC(=O)O)cc1	5.83
4. COc1ncc(-c2cccc(C(F)(F)F)c2)cc1CNc1ccc(CCC(=O)O)cc1	5.72
5. CC(Oc1ccc(NCc2ccc(-c3ccccc3)nc2OC(C)(C)C)cc1)C(=O)O (stereo not drawn)	5.22

1. COc1nc(-c2ccc(C(F)(F)F)cc2)ccc1CNc1ccc(SCC(=O)O)cc1
2. COc1nc(-c2ccccc2)ccc1CNc1ccc(SC(C(=O)O)c2ccccc2)cc1 (stereo not drawn)
3. COc1nc(-c2ccccc2)c(Br)cc1CNc1ccc(SCC(=O)O)cc1
4. COc1nc(-c2ccccc2)ccc1CNc1ccc(SC(C)(C)C(=O)O)cc1
Sort by pEC50, descending. Write the labels out in the order the request specifies. 4, 1, 2, 3
(4: 7.66, 1: 7.36, 2: 5.83, 3: 5.41)

1. CCCCCCOc1nc(-c2ccccc2)ccc1COc1ccc(OCC(=O)O)cc1
2. COc1ncc(-c2ccc(C(F)(F)F)cc2)cc1CNc1ccc(CCC(=O)O)cc1
3. CCOc1nc(-c2ccccc2)ccc1CNc1ccc(CCC(=O)O)cc1
4. CC(C)(C)Oc1nc(-c2ccccc2)ccc1CNc1ccc(OCC(=O)O)cc1
5. CC(C)(C)Oc1nc(-c2ccccc2)ccc1COc1ccc(OCC(=O)O)cc1
Put the items in order so that reported pEC50 rises from first to last. Write the labels out in the order the request specifies. 5, 4, 1, 3, 2
(5: 4.40, 4: 5.10, 1: 5.49, 3: 5.89, 2: 6.21)

I. COc1nc(-c2ccccc2)ccc1CNc1ccc(SCC(=O)O)cc1
II. CC(C)(C)Oc1nc(-c2ccccc2)ccc1CNc1ccc(OC(C)(C)C(=O)O)cc1
III. COc1cc(CCC(=O)O)ccc1NCc1ccc(-c2ccccc2)nc1OC
Sort by pEC50, descending. Write the labels out in the order the request specifies. I, III, II
